assay.comment: protease stability score; higher = more stable; yeast display proteolysis, trypsin and chymotrypsin;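 note: relative to predicted unfolded state with 0 unfolded-like and 1 meaning tenfold more protease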
Would you please tag the item Yes when its protease stability score is 1 or above, and No when it is below?

Look over these answered cases.
{"chain.sequence": "DEDEEMSRIALNLFIHAMDTGDEHTLTHLMDPNVQLQINGREIIGREEVIRFVRELGVKHVKSHRLRDMELQGDKIIIDAEVEESQGDKEHHFRHTIVFRKVNGRWIIQSIKIK", "class.label": "Yes"}
{"chain.sequence": "DEWEEWLKAILEELRRISHTGDEDEIINNADPNVKIKIGDKLIIGREEFRRIMLELSKHFGITRFEFELHDRRIVGDKIHLDGTSRFNGVDERTTLIIMKVNGRWILRSMHVE", "class.label": "Yes"}
{"chain.sequence": "DEREKDVEHWFQRLIEAQITGDEEEFDELADPNVLIEINGRELHGRDDFHKYLKRVDHFEIQHFRHHHRHIFDGKVYFNGHSELHVTVGDKRFRYEDEIHHISLKIDGRWILKSVHFA", "class.label": "No"}
{"chain.sequence": "TDRHEIIIHRMKRLMLMELTGDEKLWERLVDPDVRIIFIFNGRRHEFHGREKALERLHDWWDHLRIDHLEVRRYDVINGRARTDMESHDTYDGQHYVIKFELVVQVIDGRVHSVEMIFK", "class.label": "Yes"}

Let us examine a further case.
Does the reported protease stability score for `SEFENLQRLWLEILEHHSETGDERFMSRLADPNAKLLVNGKEFHGMEEVVEFIERLWEKFKNVRVEIHDFTVQGNKIDMDVILYYGEKVHRTEMHAVKYDGRWFMRELSIR` fall at or above the 1 mark?
Yes
